# Population Membrane Permeable-Phenotype (%) per record follows
tested on: HEK-293T; assay: Multiplex assay against HEK293T; assay type: toxicity, cell-based; conditions: human, 12 h, 10 µM, compound concentration 10 uM, replicate 1
Quick note: give the figure in %, leave out the unit.

Recorded results for 5 compounds are shown here.
In [3]: df
Out[3]:
                                smiles_repr  result_number
0  C=C1/C(=C\C=C2/CCC[C@]3(C)[C@@H]([C@H](C)/C=C/[C@H](C)C(C)C)CC[C@@H]23)C[C@@H](O)C[C@@H]1O              2
1  O=C(Cc1ccc(-c2ccc(OCCN3CCOCC3)cc2)cn1)NCc1ccccc1              0
2  CCc1cccc(CC)c1NC(=O)c1nn(C)c2c1CCc1cnc(Nc3ccc(C(=O)NC4CCN(C)CC4)cc3OC(F)(F)F)nc1-2              0
3  S=C(NCCCc1c[nH]cn1)NCCCN(Cc1ccc(Cl)c(Cl)c1)c1ccc(Br)cn1             22
4  COCC(=O)NC/C=C/c1ccc2ncnc(Nc3ccc(Oc4ccc(C)nc4)c(C)c3)c2c1              2

Field Population Membrane Permeable-Phenotype (%) (system: HEK-293T) for entry CNc1cc(Oc2cc(C(=O)Nc3cc(N4CCN(C)CC4)cc(C(F)(F)F)c3)ccc2C)ncn1 = 0

Field Population Membrane Permeable-Phenotype (%) (system: HEK-293T) for entry O=C1NC(=O)C(c2cnc3ccccn23)=C1c1cn2c3c(cc(F)cc13)CN(C(=O)N1CCCCC1)CC2 = 0

Field Population Membrane Permeable-Phenotype (%) (system: HEK-293T) for entry Cc1cc(C)c(S(=O)(=O)N(Cc2ccc(-c3cccc(S(C)(=O)=O)c3)cc2)Cc2ccc(C(F)(F)F)o2)c(C)c1 = 10

* * *

tested on: HEK-293T; assay: Multiplex assay against HEK293T; format: toxicity, cell-based; details: human, 12 h, 1 µM, compound concentration 1 uM, replicate 1
Strictly below 40% in Population Healthy Nuclei (%): t. Otherwise: f.

Compound	Classification
COc1ccc(S(=O)(=O)N(CCO)c2ccccc2CN(C)C/C=C/c2ccc(Cl)cc2)cc1.O=P(O)(O)O	t
Cl.Oc1ccc2c3c1O[C@H]1c4[nH]c5c(c4C[C@@]4(O)[C@@H](C2)N(CC2CC2)CC[C@]314)C[C@@]1(O)[C@H]2Cc3ccc(O)c4c3[C@@]1(CCN2CC1CC1)[C@H]5O4	f
Cl.O=c1c2cccn2c2ccccc2n1CCCN1CCC(c2ccc(Cl)cc2)CC1	f

Query: For this compound, is Population Healthy Nuclei (%) lower than 40%? Cc1cc(C)c(S(=O)(=O)N(Cc2ccc(-c3cccc(S(C)(=O)=O)c3)cc2)Cc2ccc(C(F)(F)F)o2)c(C)c1
Reply: t

Query: For this compound, is Population Healthy Nuclei (%) lower than 40%? CN[C@@H]1C[C@H]2O[C@@](C)([C@@H]1OC)n1c3ccccc3c3c4c(c5c6ccccc6n2c5c31)C(=O)NC4
Reply: t

Query: For this compound, is Population Healthy Nuclei (%) lower than 40%? NC(=O)c1cccc(-c2cc(Nc3ccc(OC(F)(F)F)cc3)ncn2)c1
Reply: f

Query: For this compound, is Population Healthy Nuclei (%) lower than 40%? CCOC(=O)c1c(C)[nH]c2ccc3c(c12)CN1CCc2cc(OC)ccc2C1O3 (configuration not stated)
Reply: t
